# measuredTarget: Peroxisome proliferator-activated receptor alpha (Homo sapiens, UniProt Q07869)
# Sequence (Q07869 whole entry, the tested form may be a part): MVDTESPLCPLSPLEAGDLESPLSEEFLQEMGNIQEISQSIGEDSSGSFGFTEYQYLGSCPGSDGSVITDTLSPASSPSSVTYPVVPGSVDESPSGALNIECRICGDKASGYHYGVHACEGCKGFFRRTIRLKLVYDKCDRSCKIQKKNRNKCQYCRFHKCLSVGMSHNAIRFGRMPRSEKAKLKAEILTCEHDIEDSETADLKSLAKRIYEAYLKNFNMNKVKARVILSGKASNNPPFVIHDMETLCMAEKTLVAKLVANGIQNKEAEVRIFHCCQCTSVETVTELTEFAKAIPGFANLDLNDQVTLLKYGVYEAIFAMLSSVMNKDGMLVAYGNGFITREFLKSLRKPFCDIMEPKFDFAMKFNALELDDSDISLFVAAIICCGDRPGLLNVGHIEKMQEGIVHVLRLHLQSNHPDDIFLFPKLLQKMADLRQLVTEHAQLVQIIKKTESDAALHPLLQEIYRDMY
# testProtocol: Agonist activity at Gal4-tagged human PPARalpha ligand binding domain expressed in COS-7 cells measured after overnight incubation by dual-glo luciferase reporter gene assay
# Format: cell-based
# measurementContext: read-out: EC50
testReadout: EC50 (nM)

1. CCCCCCC(Sc1nc(Cl)cc(Nc2ccc(Nc3ccccc3)cc2)n1)C(=O)O (configuration not stated): 67
2. CCCCCCC(Sc1nc(Cl)cc(NCCCC(=O)NCc2ccccc2C(F)(F)F)n1)C(=O)O (configuration not stated): 2500

---

# measuredTarget: Peroxisome proliferator-activated receptor alpha (Homo sapiens)
# testProtocol: Agonist activity at Gal4-tagged human PPARalpha ligand binding domain expressed in COS-7 cells measured after overnight incubation by dual-glo luciferase reporter gene assay
# Format: cell-based
# measurementContext: cos-7
testReadout: EC50

1) CCOC(=O)C(CC)Cc1ccc(N2CCC(C(=O)NCc3ccccc3C(F)(F)F)CC2)cc1 (stereo not drawn): Not Active
2) CCC(Cc1ccc(N2CCC(C(=O)NCc3ccccc3C(F)(F)F)CC2)cc1)C(=O)O (stereo not drawn): Not Active
3) CC/C(=C\c1ccc(N2CCC(C(=O)NCc3ccccc3C(F)(F)F)CC2)cc1)C(=O)O: Not Active

---

# measuredTarget: Bifunctional epoxide hydrolase 2 (Homo sapiens)
# Sequence (P34913 whole entry): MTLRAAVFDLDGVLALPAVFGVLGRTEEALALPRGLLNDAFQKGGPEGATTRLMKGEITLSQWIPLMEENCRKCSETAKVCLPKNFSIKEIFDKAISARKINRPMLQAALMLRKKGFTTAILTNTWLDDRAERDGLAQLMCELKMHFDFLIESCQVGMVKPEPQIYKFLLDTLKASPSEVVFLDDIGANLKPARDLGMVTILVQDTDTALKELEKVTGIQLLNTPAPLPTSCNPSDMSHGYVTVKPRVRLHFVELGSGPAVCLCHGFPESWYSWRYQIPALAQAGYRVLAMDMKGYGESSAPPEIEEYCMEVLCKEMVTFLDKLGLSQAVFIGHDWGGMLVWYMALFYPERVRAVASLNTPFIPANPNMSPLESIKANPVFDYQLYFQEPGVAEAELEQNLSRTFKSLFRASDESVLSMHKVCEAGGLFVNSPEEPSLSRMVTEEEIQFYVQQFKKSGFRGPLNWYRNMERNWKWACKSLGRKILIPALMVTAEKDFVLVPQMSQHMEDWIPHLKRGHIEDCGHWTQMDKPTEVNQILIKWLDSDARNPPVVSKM
# testProtocol: Inhibition of recombinant human […] assessed as product formation preincubated for 30 mins followed by addition of (3-phenyl-cyano-(6-methoxy-2-naphthalenyl)methyl ester-2-oxirane-acetic acid as substrate measured after 30 mins by fluorescence analysis
# measurementContext: read-out: IC50
# key: entry, value: IC50
testReadout: IC50

1) CCCCCCC(Sc1nc(Cl)cc(N2CCC(C(=O)NCc3ccccc3C(F)(F)F)CC2)n1)C(=O)O (configuration not stated): 300 nM
2) CC(Oc1ccc(CNC(=O)Nc2ccc(Cl)cc2)cc1)C(=O)O (configuration not stated): 850 nM
3) CCOC(=O)C(C)Oc1ccc(CNC(=O)Nc2ccc(Cl)cc2)cc1 (configuration not stated): 64 nM
4) CCC(Cc1ccc(N2CCC(C(=O)NCc3ccccc3C(F)(F)F)CC2)cc1)C(=O)O (configuration not stated): 75 nM
5) CCCCCCC(Sc1nc(Cl)cc(NCCCC(=O)NCc2ccccc2C(F)(F)F)n1)C(=O)OCC (configuration not stated): 1300 nM
6) CC(Oc1ccc(CCNC(=O)Nc2ccc(Cl)cc2)cc1)C(=O)O (configuration not stated): 570 nM
7) CCOC(=O)C(C)Oc1ccc(CCNC(=O)Nc2ccc(Cl)cc2)cc1 (configuration not stated): 27 nM
8) CCOC(=O)/C(=C/c1ccc(N2CCC(C(=O)NCc3ccccc3C(F)(F)F)CC2)cc1)CC: 40 nM
9) CCOC(=O)C(CC)Cc1ccc(N2CCC(C(=O)NCc3ccccc3C(F)(F)F)CC2)cc1 (configuration not stated): 23 nM
10) CCCCCCC(Sc1nc(Cl)cc(N2CCC(C(=O)NCc3ccccc3C(F)(F)F)CC2)n1)C(=O)OCC (configuration not stated): 2500 nM
11) CC/C(=C\c1ccc(N2CCC(C(=O)NCc3ccccc3C(F)(F)F)CC2)cc1)C(=O)O: 27 nM
12) CCCCCCC(Sc1nc(Cl)cc(NCCCC(=O)NCc2ccccc2C(F)(F)F)n1)C(=O)O (configuration not stated): 1200 nM

The reported numbers originate from ChEMBL document CHEMBL3817847.
